These data points were gathered from ChEMBL document CHEMBL1155195.

- Method Description: Binding affinity to zinc assessed as formation of zinc-compound complex by EGTA fluorescence titration assay
pKd: −log10 of the molar value.
Each entry below lists one item and its recorded pKd value.
Quantity Measured: pKd

{"columns": ["Record Smiles", "Quantity Measured", "Bound Sign", "Recorded Number"],
 "data": [
  ["COc1ccc(OC)c(CN2CCN(CC(=O)N/N=C/c3ccccc3O)CC2)c1", "pKd", "=", 7.19],
  ["C=CCc1cccc(CNNC(=O)CN2CCN(Cc3ccccc3)CC2)c1O", "pKd", "<", 5.00],
  ["O=C(CN1CCN(Cc2ccccc2)CC1)NCCc1ccccc1O", "pKd", "<", 5.00],
  ["Nc1ccccc1/C=N/NC(=O)CN1CCN(Cc2ccccc2)CC1", "pKd", "<", 5.00],
  ["C=CCc1cccc(/C=N/NC(=O)CC2CCN(C(=O)OC(C)(C)C)CC2)c1O", "pKd", "=", 7.32],
  ["C=CCc1cc(/C=N/NC(=O)CN2CCN(Cc3ccccc3)CC2)c(O)c(CC=C)c1", "pKd", "=", 7.37],
  ["C=CCc1cccc(/C=N/NC(=O)CN2CCN(Cc3cccc(Cn4cc(CNC(=O)Cc5c(C)c6cc(S(=O)(=O)O)c(N)cc6oc5=O)nn4)c3)CC2)c1O", "pKd", "=", 7.21],
  ["C=CCc1cccc(/C=N/N(C)C(=O)CN2CCN(Cc3ccccc3)CC2)c1O", "pKd", "<", 5.00],
  ["C=CCc1cccc(/C=N/NC(=O)CN2CCN(Cc3ccccc3)CC2)c1OC", "pKd", "<", 5.00],
  ["COC(=O)c1ccccc1/C=N/NC(=O)CN1CCN(Cc2ccccc2)CC1", "pKd", "<", 5.00],
  ["C=CCc1cccc(/C=N/NC(=O)CN2CCN(Cc3ccc(F)cc3)CC2)c1O", "pKd", "=", 7.32],
  ["O=C(CN1CCN(Cc2ccccc2)CC1)N/N=C/c1ccccc1Cl", "pKd", "<", 5.00],
  ["O=C(CN1CCN(Cc2ccccc2)CC1)N/N=C/c1ccccc1S", "pKd", "<", 5.00],
  ["C=CCc1cccc(/C=N/NC(=O)CN2CCN(Cc3ccc(OC)cc3)CC2)c1O", "pKd", "=", 7.33],
  ["O=C(CN1CCN(Cc2ccccc2)CC1)N/N=C/c1ccccc1", "pKd", "<", 5.00],
  ["C=CCc1cccc(/C=N/NC(=O)CC2CCN(Cc3ccccc3)CC2)c1O", "pKd", "=", 7.36]
]}

* * *

- Method Description: Binding affinity to zinc assessed as formation of zinc-compound complex by EGTA fluorescence titration assay

{"columns": ["Compound", "Readout Units", "Bound Sign", "Kd"],
 "data": [
  ["C=CCc1cccc(/C=N/NC(=O)CN2CCN(Cc3cccnc3)CC2)c1O", "nM", "=", 62],
  ["C=CCc1cccc(/C=N/NC(=O)CN2CCN(Cc3cc(OC)ccc3OC)CC2)c1O", "nM", "=", 39],
  ["O=C(CN1CCN(Cc2ccccc2)CC1)NCc1ccccc1O", "nM", ">", 10000],
  ["O=C(CN1CCN(Cc2ccccc2)CC1)N/N=C/c1ccccc1SSc1ccccc1/C=N/NC(=O)CN1CCN(Cc2ccccc2)CC1", "nM", ">", 10000],
  ["CSc1ccccc1/C=N/NC(=O)CN1CCN(Cc2ccccc2)CC1", "nM", ">", 10000],
  ["O=C(CN1CCN(Cc2ccccc2)CC1)N/N=C/c1ccccc1C(=O)O", "nM", ">", 10000],
  ["C=CCc1cccc(/C=N/NC(=O)CN2CCN(Cc3ccncc3)CC2)c1O", "nM", "=", 80],
  ["C=CCc1cccc(/C=N/NC(=O)CN2CCN(Cc3cccc([N+](=O)[O-])c3)CC2)c1O", "nM", "=", 45],
  ["C=CCc1cccc(/C=N/NC(=O)CN2CCC(Cc3ccccc3)CC2)c1O", "nM", "=", 49],
  ["C=CCc1cccc(/C=N/NC(=O)CN2CCN(Cc3ccccc3)CC2)c1O [PAC-1]", "nM", "=", 52]
]}

* * *

- System: U-937
- Method Description: Cytotoxicity against human U937 cells after 72 hrs by sulforhodamine B assay
- Type: functional, cell-based
- Measurement Setup: U-937, 72 h
pIC50: −log10 of the molar value.
Rule: pIC50 of 5 or more gives T; anything lower gives F.

{"columns": ["Record Smiles", "Discrete Label"],
 "data": [
  ["C=CCc1cccc(/C=N/NC(=O)CN2CCN(Cc3cc(OC)ccc3OC)CC2)c1O", "T"],
  ["O=C(CN1CCN(Cc2ccccc2)CC1)N/N=C/c1ccccc1C(=O)O", "F"],
  ["C=CCc1cccc(/C=N/NC(=O)CN2CCN(Cc3ccccc3)CC2)c1OC", "F"],
  ["C=CCc1cccc(CNNC(=O)CN2CCN(Cc3ccccc3)CC2)c1O", "F"],
  ["C=CCc1cccc(/C=N/NC(=O)CN2CCN(Cc3cccnc3)CC2)c1O", "F"],
  ["C=CCc1cccc(/C=N/NC(=O)CN2CCN(Cc3ccncc3)CC2)c1O", "F"]
]}
